- target-or-test-system: T1, human PSMA (Prostate Specific Membrane Antigen, Glutamate Carboxypeptidase II) on cells (human, UniProt Q04609 1-750)
- T1 construct: whole, on cells; the cell line is named under assay; also called cell surface expressed PSMA; FOLH1
- T1 sequence (Q04609 whole entry): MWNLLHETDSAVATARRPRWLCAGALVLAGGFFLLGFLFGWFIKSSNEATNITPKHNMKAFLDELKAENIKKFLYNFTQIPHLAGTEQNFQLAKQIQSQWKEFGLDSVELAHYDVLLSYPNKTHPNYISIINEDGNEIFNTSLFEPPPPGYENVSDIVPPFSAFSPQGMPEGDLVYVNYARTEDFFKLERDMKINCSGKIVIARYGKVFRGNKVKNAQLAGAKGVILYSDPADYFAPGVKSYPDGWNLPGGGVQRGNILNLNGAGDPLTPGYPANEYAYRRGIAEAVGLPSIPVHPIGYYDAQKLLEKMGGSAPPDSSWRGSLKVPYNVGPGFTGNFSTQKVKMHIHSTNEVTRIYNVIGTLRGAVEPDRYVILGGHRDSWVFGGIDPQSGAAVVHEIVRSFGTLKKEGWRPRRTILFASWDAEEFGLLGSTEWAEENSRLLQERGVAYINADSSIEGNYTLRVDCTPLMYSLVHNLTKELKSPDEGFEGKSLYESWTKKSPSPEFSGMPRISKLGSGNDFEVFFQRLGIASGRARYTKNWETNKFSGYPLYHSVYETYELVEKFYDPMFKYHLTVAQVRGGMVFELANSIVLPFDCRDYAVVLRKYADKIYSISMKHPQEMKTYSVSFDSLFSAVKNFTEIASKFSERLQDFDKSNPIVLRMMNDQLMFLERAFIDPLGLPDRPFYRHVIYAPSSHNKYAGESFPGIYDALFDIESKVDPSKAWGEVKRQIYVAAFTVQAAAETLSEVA
- experimental-details: flow cytometry on LNCaP cells
measured-quantity: fold over the background MFI signal
A complete answer gives the number and then names the unit.

// input: 5 binders below; output: fold over the background MFI signal for each
1. anti-PSMA heavy chain antibody clone ID 325836 (antibody, V domains shown, heavy chain-only antibody (UniAb), no light chain) VH: QVQLVESGGGVVQPGRSLRLSCAASGFSFRSYGMHWVRQAPGKGLEWVAVIWYDGSNKYYADSVKGRFTISRDYSKNTLYLQMNSLRAEDTAVYYCAREPRIGYYYDSSGYDSLDYRGQGTLVTVSS
2. anti-PSMA heavy chain antibody clone ID 326028 (antibody, V domains shown, heavy chain-only antibody (UniAb), no light chain) VH: QVQLVESGGGVVQPGRSLRLSCAASGFSFRSYGMHWVRQAPGKGLEWVAVISYDGSNKYYADSVKGRFTISRDYSKNTLYLQMNSLRAEDTAVYYCAREPRIGYYYDSSGYDSLDYRGQGTLVTVSS
3. anti-PSMA heavy chain antibody clone ID 325932 (antibody, V domains shown, heavy chain-only antibody (UniAb), no light chain) VH: QVQLVESGGGVVQPGRSLRLSCAASGFSFSSYGMHWVRQAPGKGLEGVAVIWYDGSNRYYADSVKGRFTISRDNSKNTLYLQMNSLRAEDTAVYYCAREPRIGYYYESSGYYSLDYRGQGTLVTVSS
4. anti-PSMA heavy chain antibody clone ID 326029 (antibody, V domains shown, heavy chain-only antibody (UniAb), no light chain) VH: QVQLVESGGGVVQPGRSLRLSCAASGFSFSRYGMHWVRQAPGKGLEWVAVISYDGSNKYYADSVKGRFTISRDNSKNTLYLQMNSLRAEDTAVYYCAREPRVGYYYETSGYYSLDYRGQGTLVTVSS
5. anti-PSMA heavy chain antibody clone ID 345461 (antibody, V domains shown, heavy chain-only antibody (UniAb), no light chain) VH: QVQLVESGGGVVQPGRSLRLSCAASGFSFTSYGMHWVRQAPGKGLEGVAVIWYDGSNRYYADSVKGRFTISRDNSKNTLYLQMNSLRAEDTAVYYCAREPRIGYYYESSGYYSLDYRGQGTLVTVSS

Ans:
1: 163 fold over background; 2: 117 fold over background; 3: 64 fold over background; 4: 109 fold over background; 5: 102 fold over background

Hi! Can you tell me fold over the background MFI signal for each of these binders?
1. anti-PSMA heavy chain antibody clone ID 326084 (antibody, V domains shown, heavy chain-only antibody (UniAb), no light chain) VH: QVQLVESGGGVVQPGRSLRLSCAASGFSFSSYGMHWVRQAPGKGLEGVAVIWYDGSNRYYADSVKGRFTISRDNSKNTLYLQMNSLRAEDTAVYYCAREPRIGYYYDSSGYYSLDYRGQGTLVTVSS
2. anti-PSMA heavy chain antibody clone ID 345485 (antibody, V domains shown, heavy chain-only antibody (UniAb), no light chain) VH: QVQLVESGGGVVQPGRSLRLSCAASGFSFRSYGMHWVRQAPGKGLEWVAVIWYDGSNKYYADSVKGRFTISRDNSKNTMYLQMNSLRAEDTAVYYCAREPRIGYYYESSGYYSLDYRGQGTLVTVSS
3. anti-PSMA heavy chain antibody clone ID 326027 (antibody, V domains shown, heavy chain-only antibody (UniAb), no light chain) VH: QVQLVESGGGVVQPGRSLRLSCAASGFSFRSYGMHWVRQAPGKGLEWVAVIWYDGSNKYYADSVKGRFTISRDNSKNTLYLQMNSLRAEDTAVYYCAREPRIGYYYDSSGYDSLDYRGQGTLVTVSS

Ans:
1: 125 fold over background; 2: 71 fold over background; 3: 138 fold over background

Give fold over the background MFI signal for all binders that follow.
1. anti-PSMA heavy chain antibody clone ID 326087 (antibody, V domains shown, heavy chain-only antibody (UniAb), no light chain) VH: QVQLVESGGGVVQPGRSLRLSCAASGFIFRSYGMHWVRQAPGKGPEWVAVIWYDGSNKYYADSVKGRFTISRDNSKNTLYLQMNSLRAEDTAVYYCAREPRIGYYYDSSGYDSLDYRGQGTLVTVSS
2. anti-PSMA heavy chain antibody clone ID 346181 (antibody, V domains shown, heavy chain-only antibody (UniAb), no light chain; also called HCAb 346181) VH: QLQLQESGPGLVKPSETLSLTCTVSGGSISSSNYFWGWIRQSPGKGLEWIGSIDYSGYTYYNPSLKSRVTISVDTSKNQFSLKLSSVTAADTAVYNCARHKAATADFDYRGQGTLVTVSS
3. anti-PSMA heavy chain antibody clone ID 325867 (antibody, V domains shown, heavy chain-only antibody (UniAb), no light chain; also called Antibody 1) VH: QVQLVESGGGVVQPGRSLRLSCAASGFSFRSYGMHWVRQAPGKGLEWVAVIWYDGSNKYYADSVKGRFTISRDYSKNTLYLQMNSLRAEDTAVYYCAREPRIGYYYESSGYDSLDYRGQGTLVTVSS
4. anti-PSMA heavy chain antibody clone ID 345493 (antibody, V domains shown, heavy chain-only antibody (UniAb), no light chain) VH: QVQLVESGGGVVQPGRSLRLSCAASGFSFSRYGMHWVRQAPGKGLEWVAVIWYDGSNRYYADSVKGRFTISRDNSKNTLYLQMNSLRAEDTAVYYCAREPRIGYYYESSGYYSLDYRGQGTLVTVSS
5. anti-PSMA heavy chain antibody clone ID 345443 (antibody, V domains shown, heavy chain-only antibody (UniAb), no light chain) VH: QVQLVESGGGVVQPGRSLRLSCAASGFSFSSYGMHWVRQAPGKGLEGVAVIWYDGSNRYYADSVKGRFTISRDNSKNTLFLQMNSLRAEDTAVYYCAREPRIGYYYESSGYYSLDYRGQGTLVTVSS
6. anti-PSMA heavy chain antibody clone ID 345508 (antibody, V domains shown, heavy chain-only antibody (UniAb), no light chain) VH: QVQLVESGGGVVQPGRSLRLSCAASGFSFSSYGMHWVRQAPGKGPEWVAVIWYDGSNRYYADSVKGRFTISRDNSKNTLYLQMNSLRAEDTAVYYCAREPRIGYYYESSGYYSLDYRGQGTLVTVSS
7. anti-PSMA heavy chain antibody clone ID 346165 (antibody, V domains shown, heavy chain-only antibody (UniAb), no light chain) VH: QLQLQESGPGLVKPSETLSLTCTVSGGSISSSSYYWGWIRQPPGKGLEWIGSVDYSGYTYYNPSLQSRVTISVDTSKNQFSLKLSSVTAADTAVYNCARHKAATADFDYRGQGTLVTVSS

Ans:
1. 129 fold over background
2. 264 fold over background
3. 210 fold over background
4. 101 fold over background
5. 84 fold over background
6. 55 fold over background
7. 243 fold over background
